Examples of compounds with documented IC50 follow.
target: cortisol synthase (CYP11B1) (Macaca fascicularis, UniProt A0A2K5ULY1); assay: Inhibition of cortisol synthesis, cynomolgus adrenal mitochondria, 11-deoxycortisol as substrate; type: biochemical, cynomolgus monkey; conditions: cynomolgus adrenal mitochondria, 150 units of CYP11B1, 11-deoxycortisol as substrate; read-out: Cortisol Inhibition IC50
Report the value in µM with no unit label.

Example entries begin here.
I would be grateful if you could share the reported IC50 for O=C1OCCc2ncn(-c3ccc(Cl)cc3)c21 .
65

State the recorded IC50 for this entry: CC1(CO)Cc2ncn(-c3ccc(Cl)c(Cl)c3)c2C(=O)O1 (single isomer, unassigned) [Compound 30B]
5.2

// IC50 lookup, key: CC1(CO)Cc2ncn(-c3ccc(Cl)cc3)c2C(=O)O1 (single isomer, unassigned) [Compound 38A]
19

// moving on: another record for IC50
IC50 for CC(C)(C)OC(=O)NCC1(C)Cc2ncn(-c3ccc(F)c(F)c3)c2C(=O)O1 (stereo not shown) ?
2.3

====

target: cortisol synthase (CYP11B1) (Macaca fascicularis); test: Inhibition of cortisol synthesis, cynomolgus adrenal mitochondria, 11-deoxycortisol as substrate; type: biochemical, cynomolgus monkey; conditions: Cortisol Inhibition IC50, cynomolgus adrenal mitochondria, 150 units of CYP11B1, 11-deoxycortisol as substrate
readout name: IC50 (µM)
Respond with the bare value in µM.

Given the entry C[C@]1(CO)Cc2ncn(-c3ccc(C#N)c(Cl)c3)c2C(=O)O1 (single isomer, unassigned) [Compound 29A] , what IC50 was observed with cortisol synthase (CYP11B1) (Macaca fascicularis)?
4.7

Under cortisol synthase (CYP11B1) (Macaca fascicularis): IC50 value of CC1(C)Cc2ncn(-c3ccc(C#N)c(F)c3)c2C(=O)O1 ?
4.2

Please tell me: IC50 of N#Cc1ccc(-n2cnc3c2C(=O)OC(CO)C3)cc1Cl (single isomer, unassigned) [Compound 33A] , system cortisol synthase (CYP11B1) (Macaca fascicularis)?
45

Reported IC50 for cortisol synthase (CYP11B1) (Macaca fascicularis), given CC1(C)Cc2ncn(-c3ccc(C#N)c(Cl)c3)c2C(=O)O1 ?
2.5

New cases:
Recall the recorded IC50 for CN(C)C(=O)C1(C)Cc2ncn(-c3ccc(C#N)c(Cl)c3)c2C(=O)O1 (centres unmarked) with cortisol synthase (CYP11B1) (Macaca fascicularis) and state it.
13

Given the entry Cc1cc(-n2cnc3c2C(=O)OC(C)(CO)C3)ccc1C#N (single isomer, unassigned) [Compound 39B] , what IC50 was observed with cortisol synthase (CYP11B1) (Macaca fascicularis)?
8.6

Fill in the recorded IC50 for this molecule, with cortisol synthase (CYP11B1) (Macaca fascicularis) as test system: CC1Cc2ncn(-c3ccc(C#N)c(Cl)c3)c2C(=O)O1 (single isomer, unassigned) [Compound 15A]
3.4

====

biological target: aldosterone synthase (CYP11B2) (Macaca fascicularis); construct: employ cynomolgus adrenal gland mitochondria as the source of aldosterone synthase (CYP11B2); from tissue; host or cells: cynomolgus monkey adrenal gland mitochondria; test: Inhibition of aldosterone synthase, cynomolgus adrenal mitochondria, aldosterone quantified by mass spectrometry; assay type: biochemical, cynomolgus monkey; details: 2 μM corticosterone, 90 minutes at 37° C.
Sequence (A0A2K5UPL9 1-503): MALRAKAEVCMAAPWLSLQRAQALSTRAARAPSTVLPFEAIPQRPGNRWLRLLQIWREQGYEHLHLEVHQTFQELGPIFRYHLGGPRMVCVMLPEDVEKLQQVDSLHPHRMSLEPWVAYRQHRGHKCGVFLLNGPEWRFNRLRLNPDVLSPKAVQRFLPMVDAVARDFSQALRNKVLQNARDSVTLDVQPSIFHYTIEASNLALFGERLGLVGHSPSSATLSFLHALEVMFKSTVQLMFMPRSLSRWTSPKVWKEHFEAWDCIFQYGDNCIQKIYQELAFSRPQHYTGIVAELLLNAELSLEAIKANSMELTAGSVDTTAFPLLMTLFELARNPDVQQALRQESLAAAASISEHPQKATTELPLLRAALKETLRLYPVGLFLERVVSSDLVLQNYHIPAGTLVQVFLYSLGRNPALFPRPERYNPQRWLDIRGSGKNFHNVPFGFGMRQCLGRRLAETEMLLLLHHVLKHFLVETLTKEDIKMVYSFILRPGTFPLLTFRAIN
Measured IC50, listed per entry for reference.
The answer is to be given in nM; state only the numeric part.

I have this compound here, Cc1cc(C#N)ccc1-n1cnc2c1C(=O)OC(C)(CO)C2 (single isomer, unassigned) [Compound 31A] , and I need its recorded IC50.
23

Consider the compound shown here: C[C@@]1(CO)Cc2ncn(-c3ccc(C#N)c(Cl)c3)c2C(=O)O1 (single isomer, unassigned) [Compound 29B] What is its recorded IC50?
48

Quick one: IC50 for CC1(C)Cc2ncn(-c3ccc(Cl)cc3)c2C(=O)O1 [Compound 9] ?
32

Let us examine a further case.
# lookup: IC50 of CC1(C)Cc2ncn([C@H]3CC[C@H](C#N)CC3)c2C(=O)O1 [Compound 28]
75

====

Biological target: rhCYP17A1 (Homo sapiens, UniProt P05093)
Construct: purchased Cypex
Test: Inhibition of CYP17A1, progesterone to 17-α-hydroxyprogesterone, mass spectrometry
Type: biochemical
Details: rhCYP17A1, 150 nM progesterone, 15 minutes at 37° C.; read-out: CYP17A1 IC50
Experimental: Compounds of the invention may also be evaluated for inhibition of CYP17A1 via the following assay: Reactions are started by the addition of NADPH to 1 mM and allowed to proceed for 15 minutes at 37° C. […] The plates are centrifuged at 3000 rpm for 5 min and the reaction product 17-α-hydroxyprogesterone is quantified by mass spectrometry. […] Dose dependent inhibition is quantified by the inclusion of compound at various concentrations. […]
Entries and their IC50

Answered cases to consult:
Report IC50 for CC1(C)Cc2ncn(-c3cccc(Cl)c3F)c2C(=O)O1 tested on rhCYP17A1 (Homo sapiens, UniProt P05093).
> 20 µM

rhCYP17A1 (Homo sapiens, UniProt P05093) / IC50 / CC1(CO)Cc2ncn(-c3ccc(Cl)c(Cl)c3)c2C(=O)O1 (single isomer, unassigned) [Compound 30B] : value?
> 20 µM

Entry CC1(C(=O)O)Cc2ncn(-c3ccc(C#N)c(Cl)c3)c2C(=O)O1 (centres unmarked) , system rhCYP17A1 (Homo sapiens, UniProt P05093): what IC50 was measured?
> 20 µM

Turning now to a further record.
Give the reported IC50 for CN1C(=O)CCc2cc(-n3cnc4c3C(=O)OC(C)(C)C4)ccc21 (system: rhCYP17A1 (Homo sapiens, UniProt P05093)).
> 20 µM

====

target: cortisol synthase (CYP11B1) (Macaca fascicularis); assay: Inhibition of cortisol synthesis, cynomolgus adrenal mitochondria, 11-deoxycortisol as substrate; format: biochemical, cynomolgus monkey; conditions: cynomolgus adrenal mitochondria, 150 units of CYP11B1, 11-deoxycortisol as substrate; read-out: Cortisol Inhibition IC50
readout name: IC50 (µM)
The reply should contain only the number, in µM.

Record excerpt, results attached:
Fill blank: measured IC50 of the compound CC1(CO)Cc2ncn(-c3cccc(Cl)c3F)c2C(=O)O1 (single isomer, unassigned) [Compound 35A] is ____.
24

Would you mind telling me what IC50 value was observed for CC1(C)Cc2ncn(-c3ccc(C#N)cc3)c2C(=O)O1 ?
8.7

Requested field: IC50. Item: Cc1cc(C#N)ccc1-n1cnc2c1C(=O)OC(C)(CO)C2 (single isomer, unassigned) [Compound 31A]
3.6

# get_value(readout='IC50', item= CC1(C)Cc2ncn(-c3cccc(Cl)c3F)c2C(=O)O1 )
5.3

Suppose we examine the compound O=C1OCCc2ncn(-c3ccc(Cl)c(Cl)c3)c21 ; what IC50 value has been reported?
10

Given CC1(C)Cc2ncn(-c3ccc(Cl)c(C#N)c3)c2C(=O)O1 , state its recorded IC50.
24

---
Give the measured IC50 of O=C1OCCc2ncn(-c3ccc(F)c(F)c3)c21 .
20

State the recorded IC50 for this entry: CC1(C)Cc2ncn(-c3ccc(Cl)cc3)c2C(=O)O1
2.4

Reported IC50, compound CC1(CO)Cc2ncn(-c3ccc(Cl)cc3)c2C(=O)O1 (single isomer, unassigned) [Compound 38B] : ____
36

====

Molecular target: rhCYP17A1 (Homo sapiens, UniProt P05093)
Construct: purchased Cypex
Sequence (P05093 1-508): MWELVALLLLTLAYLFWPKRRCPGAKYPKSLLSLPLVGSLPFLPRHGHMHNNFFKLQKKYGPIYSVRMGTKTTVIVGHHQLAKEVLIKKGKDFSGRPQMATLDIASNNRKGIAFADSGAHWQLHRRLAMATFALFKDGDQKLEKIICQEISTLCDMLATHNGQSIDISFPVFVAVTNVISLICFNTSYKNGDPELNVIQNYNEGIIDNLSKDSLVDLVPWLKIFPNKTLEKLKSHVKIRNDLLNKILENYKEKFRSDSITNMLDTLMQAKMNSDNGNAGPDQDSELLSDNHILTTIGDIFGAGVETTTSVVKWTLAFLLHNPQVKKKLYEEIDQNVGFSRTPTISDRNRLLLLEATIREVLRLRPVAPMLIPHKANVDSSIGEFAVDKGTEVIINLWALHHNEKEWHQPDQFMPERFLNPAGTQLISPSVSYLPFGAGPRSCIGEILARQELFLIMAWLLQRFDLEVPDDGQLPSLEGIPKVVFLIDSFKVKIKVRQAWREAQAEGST
Assay: Inhibition of CYP17A1, progesterone to 17-α-hydroxyprogesterone, mass spectrometry
Assay type: biochemical
Conditions: rhCYP17A1, 150 nM progesterone, 15 minutes at 37° C.; read-out: CYP17A1 IC50
pIC50: −log10 of the molar value.
# key: entry, value: pIC50

See these solved cases before continuing.
Entry under review: CC1(CO)Cc2ncn(-c3ccc(Cl)c(Cl)c3)c2C(=O)O1 (single isomer, unassigned) [Compound 30A] . Reported pIC50?
< 4.70

Look up pIC50: CC1(CO)Cc2ncn(-c3cccc(Cl)c3F)c2C(=O)O1 (single isomer, unassigned) [Compound 35A]
4.82

Look at this compound and give its reported pIC50. CC1(C)Cc2ncn(-c3ccc(F)c(F)c3)c2C(=O)O1 [Compound 2]
< 4.70

Kindly consider the entry below.
Requested read-out: pIC50. Entry: CC1(C)Cc2ncn(-c3ccc(C#N)cc3F)c2C(=O)O1 [Compound 19]
< 4.70
